Experimental Target: GRASP, Q7Z6J2
Sequence (Q7Z6J2 96-193): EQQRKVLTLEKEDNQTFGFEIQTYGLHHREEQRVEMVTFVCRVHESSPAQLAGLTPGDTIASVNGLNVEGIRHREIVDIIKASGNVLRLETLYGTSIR
Test Summary: holdup assay
Design: key: below the threshold = too weak to quantify, mostly under pKd 3.1 to 4
Conditions Used: plain residues with an end cap or a label only (N-terminal biotin on a linker: ttds)

| Binder | pKd |
| --- | --- |
| QRQARSETLV [HPV59-E6, Q81964] | below the threshold |
| DKDPHSETAL [TMIGD1, Q6UXZ0] | below the threshold |
| SKPTRRETEV [HPV35-E6, P27228] | below the threshold |
